- Tested on: SF-295 CNS
- assay.protocol: NCI-60 one-dose screen, 48 h
- assay.conditions: 10 µM unless noted
The panel holds about 83,000 compounds, 20% with a hit somewhere; the sample as a whole holds those more often. Activity calls are given as the source filed them. Rule for the calls: active = growth percent below 10; inactive = the rest.
Lab note: assign the record to one of true (1) (active), false (0) (inactive)

See these solved cases before continuing.
CS(=O)(=O)N1CCN(Cc2cc3nc(-c4cccc5[nH]ncc45)nc(N4CCOCC4)c3s2)CC1 | true (1)
Cc1sc2c(c1C)c(=O)nc1c(-c3nc4ccccc4s3)n[nH]n12 | false (0)
CO[C@@H](C(=O)N1Cc2[nH]nc(NC(=O)c3ccc(N4CCN(C)CC4)cc3)c2C1)c1ccccc1 | false (0)
CCOc1cc2ncc(C#N)c(Nc3ccc(F)c(Cl)c3)c2cc1NC(=O)/C=C/CN(C)C | true (1)
C/C(=N\NC(=O)Cn1c(-c2ccc(S(C)(=O)=O)cc2)nc2ccccc21)c1ccc(Cl)cc1 | false (0)

Give the logged outcome of this assay for the following molecule: "C=C1C(=O)O[C@H]2[C@H]1CC/C(CNC(=O)c1cc3cc(OC)ccc3[nH]1)=C\CC[C@@]1(C)O[C@@H]21"
false (0)

Give the logged outcome of this assay for the following molecule: "N#Cc1c(-c2ccc(C(F)(F)F)cc2)cc(NCC2CCS(=O)(=O)CC2)n2c1nc1ccccc12"
false (0)

Give the logged outcome of this assay for the following molecule: "Nc1ncnc2c1ccn2-c1cccc(NC(=O)c2ccc(N3CCOCC3)c(C(F)(F)F)c2)c1"
false (0)

Give the logged outcome of this assay for the following molecule: "Cc1ccc(F)c(NC(=O)Nc2ccc(-c3cccc4[nH]nc(N)c34)cc2)c1"
false (0)

* * *

- Test system: UO-31 renal
- assay.protocol: NCI-60 one-dose screen, 48 h (100 = growth as untreated, 0 = no growth, -100 = all killed)
- assay.conditions: 10 µM unless noted
The panel holds about 83,000 compounds, 20% with a hit somewhere; the sample as a whole holds those more often.
The label is fulfilled for growth below 40% and not fulfilled for growth equal to or exceeding 40%.

See these solved cases before continuing.
C[C@@H](Oc1cc(-c2cnn(C3CCNCC3)c2)cnc1N)c1c(Cl)ccc(F)c1Cl | fulfilled
COc1cc(Nc2c(C#N)cnc3cc(OCCCN4CCN(C)CC4)c(OC)cc23)c(Cl)cc1Cl | fulfilled
C=CC(=O)N1CCC(Oc2cc3c(Nc4ccc(Cl)c(Cl)c4F)ncnc3cc2OC)CC1 | fulfilled
NC1(c2ccc(-c3nc4ccn5c(=O)[nH]nc5c4cc3-c3ccccc3)cc2)CCC1 | fulfilled
COc1ccc(Cc2cc(-c3ccccc3C)n[nH]c2=O)cc1 | not fulfilled
COc1ccc(CCCc2c3[n+](cc4c(OC)c(OC)ccc24)CCc2cc4c(cc2-3)OCO4)cc1 | not fulfilled

Determine if "CN1[C@@H]2CC[C@H]1/C(=C\c1ccccc1)C1=C2[C@@H](c2ccccc2)C(C#N)=C(N)O1" shows growth strictly lower than 40%.
not fulfilled

* * *

- Tested on: OVCAR-4 ovarian
- assay.protocol: NCI-60 one-dose screen, 48 h (100 = growth as untreated, 0 = no growth, -100 = all killed)
- assay.conditions: 10 µM unless noted
The panel holds about 83,000 compounds, 20% with a hit somewhere; the sample as a whole holds those more often.
measurement.type: growth (%)
Unit % implied. Number only.

Check out these entries, answers already filled in.
COc1cnc2c(c1)C(=O)c1c-2n(CCCN2CCC(N)CC2)c(=O)c2cc([N+](=O)[O-])ccc12 | 60.4
O=C(Nc1ccc(C2=NCCCN2)cc1)c1ccc(C(=O)Nc2ccc(C3=NCCCN3)cc2)nc1 | 102
O=C(Nc1cnn2ccc(N3CCC[C@@H]3c3cc(F)ccc3F)nc12)N1CC[C@H](O)C1 | 117
O=C(Nc1cccc(Cl)c1)Nc1ncc(CCNc2ncnc3ccsc23)s1 | 24.6
Cc1ccc(Nc2nccc(N(C)c3ccc4c(C)n(C)nc4c3)n2)cc1S(N)(=O)=O | 31.3
CCCC(=O)OCC1OC(n2cnc3c(=S)nc(N)[nH]c32)C(OC(=O)CCC)C1OC(=O)CCC (centres undefined) | 20.6

Quick check: growth of "FC(F)c1nc2ccccc2n1-c1nc(N2CCOCC2)nc(N2CCOCC2)n1" ?
-17.1

Quick check: growth of COc1ccc(C2OC(c3cc(-c4cc5ccccc5o4)nn3-c3ccccc3)=NN2C(C)=O)cc1 (centres undefined) ?
96.3

Quick check: growth of "c1ccc2c(c1)CCN(NCCN1CCCC1)C2" ?
106
